B1: library; numbered along this chain (parent)
chain: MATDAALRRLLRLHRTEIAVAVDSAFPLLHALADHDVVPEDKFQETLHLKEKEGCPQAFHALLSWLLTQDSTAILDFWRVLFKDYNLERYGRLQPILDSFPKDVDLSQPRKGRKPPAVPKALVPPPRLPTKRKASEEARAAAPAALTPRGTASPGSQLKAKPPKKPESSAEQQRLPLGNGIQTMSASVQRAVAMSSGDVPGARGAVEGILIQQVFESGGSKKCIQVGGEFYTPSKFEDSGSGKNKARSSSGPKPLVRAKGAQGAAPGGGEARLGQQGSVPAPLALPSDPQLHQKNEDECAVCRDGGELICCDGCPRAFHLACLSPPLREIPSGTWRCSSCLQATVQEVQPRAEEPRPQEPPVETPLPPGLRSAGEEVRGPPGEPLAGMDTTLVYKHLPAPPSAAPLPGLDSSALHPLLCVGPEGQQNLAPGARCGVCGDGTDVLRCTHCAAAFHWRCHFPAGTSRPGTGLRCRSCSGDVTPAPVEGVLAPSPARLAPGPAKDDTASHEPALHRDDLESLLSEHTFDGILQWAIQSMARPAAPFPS

# Variants of: B1
# Test protocol: AIRE transcriptional activation functional score (insulin promoter-GFP; nonsense median 0, synonymous median 1) (normalised score); higher = higher AIRE activity (more reporter activation)
# Measurement setup: with insulin promoter-GFP reporter in HEK293
Threshold rule: AIRE transcriptional activation functional score greater than or equal to 0.8 is rule met; below that, rule not met.

Some entries whose results are on file:
M536T rule met
P39S rule not met
Y394R rule not met
C449R rule not met
D439G rule met
R456K rule not met
V192C rule met
R12G rule not met

### Prompt Is reported AIRE transcriptional activation functional score greater than or equal to 0.8 here: S156W
### Response rule met

### Prompt Is reported AIRE transcriptional activation functional score greater than or equal to 0.8 here: K165I
### Response rule met

### Prompt Is reported AIRE transcriptional activation functional score greater than or equal to 0.8 here: G435H
### Response rule not met
